Condition set: basic group
Measured pKa of individual entries

{"Compound": "C=C(C)C(=O)OCCNCC", "pKa": 9.15}
{"Compound": "CNCCCNC", "pKa": 10.7}
{"Compound": "C/C=C/c1ccc2cccnc2c1O", "pKa": 4.66}
{"Compound": "CNCCN", "pKa": 10.4}
{"Compound": "c1cc([C@@H]2CCCN2)nc([C@@H]2CCC[NH2+]2)c1", "pKa": 9.39}
{"Compound": "CCC(C)(C)NC1CCCCC1", "pKa": 11.2}
{"Compound": "CC(=O)OCCN(C)C", "pKa": 8.3}
{"Compound": "Cc1cc(NCCC[NH+](C)C)c2c([N+](=O)[O-])cccc2n1", "pKa": 6.41}
{"Compound": "COc1ccc2c3c1O[C@H]1[C@@H](O)C=C[C@H]4[C@@H](C2)N(C)CC[C@@]341", "pKa": 8.05}
{"Compound": "NC1(C(=O)[O-])CCCC1", "pKa": 10.1}
{"Compound": "O=C(O)c1cnccn1", "pKa": -0.7}
{"Compound": "C[NH+](C)CCNCCN", "pKa": 9.12}
{"Compound": "COc1ncnc2c1cnn2C", "pKa": 2.51}
{"Compound": "CC(C)N1C2CCCC21 (stereo not given)", "pKa": 8.31}
{"Compound": "c1ccc(N=C(Nc2ccccc2)Nc2ccccc2)cc1", "pKa": 9.1}
{"Compound": "OCC1=CCN2CC[C@@H](O)[C@@H]12", "pKa": 8.92}
{"Compound": "CC1=Nc2ccccc2CO1", "pKa": 4.64}
{"Compound": "CN(C)C[C@H]1[C@@H]2CC[C@@](C)([C@H]1N)C2(C)C", "pKa": 9.84}
{"Compound": "[NH3+]c1ccc(/C=N/NC(=O)c2ccncc2)cc1", "pKa": 3.2}
{"Compound": "Nc1nc([O-])c2ncn([C@@H]3C=C[C@H](CO)C3)c2n1", "pKa": 9.68}
{"Compound": "Cc1cccc(C=O)n1", "pKa": 4.55}
{"Compound": "O=C(O)c1ccco1", "pKa": -0.53}
{"Compound": "CCC(C)(C)Nc1ccccc1", "pKa": 6.55}
{"Compound": "OC[C@@H]1O[C@H](n2ccc3c2ncn2ccnc32)[C@@H](O)[C@H]1O", "pKa": 5.49}
{"Compound": "CNCCCNC(=O)/C=N/[O-]", "pKa": 10.6}
{"Compound": "CNc1nc(NC)c2cn[nH]c2n1", "pKa": 6.08}
{"Compound": "[O-]c1cnnc2ccccc12", "pKa": 9.27}
{"Compound": "c1cncc(-c2ccncc2)c1", "pKa": 4.85}
{"Compound": "CC(C)c1ccccc1N", "pKa": 4.42}
{"Compound": "CC(=O)CCN(C)C", "pKa": 8.95}

====

Condition set: basic group
Measured pKa of individual entries

{"Molecule": "NCCCC#CC#CCCC(=O)[O-]", "pKa": 9.94}
{"Molecule": "C#CCNc1ccccc1", "pKa": 3.06}
{"Molecule": "Cc1n[nH]c2c(Nc3ccccc3)ncnc12", "pKa": 4.61}
{"Molecule": "CCN(CC)CC(=O)Nc1ccccc1C", "pKa": 7.95}
{"Molecule": "N[C@H]1C[C@H]2CCCC[C@@H]2C[C@@H]1N", "pKa": 10.1}
{"Molecule": "CCCN(CCC)CCc1c[nH]c2ccccc12", "pKa": 8.6}
{"Molecule": "O=[N+]([O-])c1ccc2[nH]c(CCl)nc2c1", "pKa": 2.21}
{"Molecule": "C[C@@H]1CC[C@@H]2CC[C@H](C)N21", "pKa": 10.2}
{"Molecule": "NC(=O)N/N=C/c1ncnc2nc[nH]c12", "pKa": 2.1}
{"Molecule": "[NH3+]CCC(=O)N[C@@H](Cc1c[nH]cn1)C(=O)[O-]", "pKa": 6.89}
{"Molecule": "Cc1cccc(N)n1", "pKa": 7.4}
{"Molecule": "C[NH+](C)CCC/N=C(\\c1ccccc1)c1ccccc1Cl", "pKa": 3.46}
{"Molecule": "Nc1ccc2[nH]cnc2c1", "pKa": 6.11}
{"Molecule": "NC(Cc1n[nH]c2ccccc12)C(=O)[O-] (stereo unspecified)", "pKa": 8.95}
{"Molecule": "CNC(=N)N(C)C", "pKa": 13.6}
{"Molecule": "Cc1cc([N+](=O)[O-])ccc1N", "pKa": 1.97}
{"Molecule": "CC1(C)CC2CCN1C(=O)C2 (stereo unspecified)", "pKa": 5.33}
{"Molecule": "CC(C)(C)[C@]1(O)CCN2C[C@@H](c3ccccc3)c3ccccc3[C@@H]2C1", "pKa": 7.03}
{"Molecule": "C[NH+]1CCCC1c1cncc2[nH]c3ccccc3c12 (stereo unspecified)", "pKa": 5.17}
{"Molecule": "NCCSCCN", "pKa": 9.64}
{"Molecule": "CNc1nccn2cc(-c3ccc(S(C)=O)cc3OC)nc12 (stereo unspecified)", "pKa": 5.36}
{"Molecule": "CCN1CC1", "pKa": 7.91}
{"Molecule": "CN1C[C@H](C(=O)[O-])C[C@@]2(O)c3cccc4[nH]cc(c34)C[C@@H]12", "pKa": 8.33}
{"Molecule": "c1ccc(C2CN3CCC2CC3)cc1 (stereo unspecified)", "pKa": 10.2}
{"Molecule": "COc1cc(C#N)cc(C(=O)N[C@@H]2C[C@H]3CC[C@@H](C2)N3Cc2ccccc2)c1OC", "pKa": 8.7}
{"Molecule": "Cc1cc(C)n(Cc2cc(C)n(C)n2)[nH+]1", "pKa": 0.6}

====

Condition set: acidic group

{"Structure as smiles": "Cc1ccc(C(=O)C[n+]2cccc3c4ccccc4ccc32)cc1", "pKa": 11.7}
{"Structure as smiles": "C[NH+](C)CCCNC(=O)/C=N/O", "pKa": 8.68}
{"Structure as smiles": "O=c1cc(CO)occ1O", "pKa": 7.82}
{"Structure as smiles": "C=Cc1ccc(O)cc1", "pKa": 9.91}

====

Measured pKa of individual entries
Condition set: acidic group
Measured quantity: pKa

{"Molecule": "COc1ccc(NC(=S)c2ccc(Cl)cc2)cc1", "Numeric readout": 11.3}
{"Molecule": "Cc1cccc(Cl)c1C(=O)O", "Numeric readout": 2.59}
{"Molecule": "FC(F)(F)c1cc(C(F)(F)F)[nH]n1", "Numeric readout": 7.51}
{"Molecule": "C[N+](C)(C)CCCc1ccccc1O", "Numeric readout": 9.78}
{"Molecule": "Cc1ccccc1/C=C/C(=O)O", "Numeric readout": 4.5}
{"Molecule": "Cc1ccc(O)c(CO)c1", "Numeric readout": 10.2}
{"Molecule": "CCOc1ccc(C)c(C(=O)O)c1", "Numeric readout": 3.86}
{"Molecule": "Cc1ccc(NC=S)cc1", "Numeric readout": 11.6}
{"Molecule": "Oc1n[nH]c(-c2ccccc2)c1Cc1ccccc1", "Numeric readout": 7.7}
{"Molecule": "O=N/C(Cc1ccccc1)=N\\O", "Numeric readout": 5.3}
{"Molecule": "Nc1ccc(O)cc1", "Numeric readout": 10.1}
{"Molecule": "CC(C)(C)c1ccc(SCC(=O)O)cc1", "Numeric readout": 3.76}
{"Molecule": "N#Cc1cccc(O)c1", "Numeric readout": 8.63}
{"Molecule": "Cc1ccccc1SCC(=O)O", "Numeric readout": 3.46}
{"Molecule": "NC(=O)C1CN2CCC1CC2 (stereo unspecified)", "Numeric readout": 9.74}
{"Molecule": "CC(C)CC(=O)CC(=O)C(F)(F)F", "Numeric readout": 6.52}
{"Molecule": "O=C(O)C[Se]c1ccc([N+](=O)[O-])cc1", "Numeric readout": 3.46}
{"Molecule": "C/C=C(\\Cl)C(=O)O", "Numeric readout": 3.22}
{"Molecule": "O=P1(O)CCC1", "Numeric readout": 3.07}
{"Molecule": "[NH3+]c1ccccc1C(=O)O", "Numeric readout": 2.08}
{"Molecule": "c1ccc(Nc2nnn[nH]2)cc1", "Numeric readout": 6.3}
{"Molecule": "O=[N+]([O-])c1ccc(/C=N/O)cc1", "Numeric readout": 10}
{"Molecule": "Cc1cc(-c2c(C)noc2O)on1", "Numeric readout": 3.2}
{"Molecule": "Oc1ccccc1F", "Numeric readout": 8.81}
{"Molecule": "COc1ccc2cc(O)ccc2c1", "Numeric readout": 9.64}
{"Molecule": "CCc1c(O)nn(-c2ccccc2)c1C", "Numeric readout": 12.3}

====

Condition set: basic group
Field: class. Source value: pKa. Ranges: range 1 = under 3, range 2 = from 3 up to 7, range 3 = 7 and over

{"Compound": "CC1CCCCN1C (stereo unspecified)", "Qualitative label": "range 3"}
{"Compound": "C1CSCN1", "Qualitative label": "range 2"}
{"Compound": "c1ccc(-c2ccc3nc(CN4CCOCC4)cn3n2)cc1", "Qualitative label": "range 2"}
{"Compound": "N/C(=N\\O)C([NH3+])c1ccccc1 (stereo unspecified)", "Qualitative label": "range 1"}
{"Compound": "C[C@H]([C@H](O)c1ccccc1)N(C)C", "Qualitative label": "range 3"}
{"Compound": "Cc1cc(C)nc(NS(=O)(=O)c2ccc([NH3+])cc2)n1", "Qualitative label": "range 1"}
{"Compound": "[O-]c1cnccn1", "Qualitative label": "range 3"}
{"Compound": "c1ncc2cn[nH]c2n1", "Qualitative label": "range 1"}
{"Compound": "CNc1ccc[nH+]c1", "Qualitative label": "range 1"}
{"Compound": "Cc1ccc(C2=NCCC2)cc1", "Qualitative label": "range 2"}
